Taken from patent US6866833B1.

assayInfo: Solubility of the ligand in supercritical CO2 (weight loss of glass tube after static SFE)
Format: physicochemical
details: supercritical CO2, organic solvent or mixture, thermodynamic from solid; larger amounts of ligand, 60° C., both pressures (200 and 300 atmospheres); read-out: Solubility in SF—CO2
assayReadout: solubility at 30 min

Data request, read-out solubility at 30 min, for CNC(=S)NCC(F)(F)C(F)(F)C(F)(F)F > 700 mM
